Experiment: Hemolytic activity in sheep RBC at 500 uM incubated for 1 hr under shaking condition by UV-spectrophotometry relative to 1% Triton-X
Type: ADME, cell-based, Ovis aries, Erythrocyte
Settings: sheep red blood cells (erythrocytes), read-out: Activity
Provide the reported hemolysis at 1 h, 500 µM of each item.
Put your answer as a value accompanied by its unit after it.

Task: # lookup: hemolysis at 1 h, 500 µM of `CCCc1ccc(C(=O)Nc2ccc3nc(N)ncc3c2)cc1.Cl`
Output: 25%

Task: # lookup: hemolysis at 1 h, 500 µM of `CCCCCCCc1ccc(C(=O)Nc2ccc3nc(N)ncc3c2)cc1`
Output: 57%

Task: # lookup: hemolysis at 1 h, 500 µM of `Cl.Nc1ncc2cc(NC(=O)c3ccc(Cl)cc3)ccc2n1`
Output: 24%

---

Tested on: Mycolicibacterium smegmatis
Test: Antibiofilm activity against Mycobacterium smegmatis str. MC2 155 ATCC 700084 after 48 hrs by crystal violet staining based […] assay
Assay type: functional, organism-based
Settings: MC2 155 ATCC 700084, 48 h
Provide the reported pIC50 of each item.
Value format note: pIC50 is -log10 of concentration (mol/L); just state the number.

Task: # lookup: pIC50 of `CCC(=O)Nc1ccc2nc(N)ncc2c1`
Output: 4.38

Task: # lookup: pIC50 of `CCCCc1ccc(C(=O)Nc2ccc3nc(N)ncc3c2)cc1`
Output: 4.41

Task: # lookup: pIC50 of `CCCc1ccc(C(=O)Nc2ccc3nc(N)ncc3c2)cc1.Cl`
Output: 4.80

Task: # lookup: pIC50 of `Nc1ncc2cc(NC(=O)CCl)ccc2n1`
Output: 4.37

Task: # lookup: pIC50 of `Nc1ncc2cc(NC(=O)c3ccc(Br)cc3)ccc2n1`
Output: 4.36

Task: # lookup: pIC50 of `CCCCC(=O)Nc1ccc2nc(N)ncc2c1`
Output: 4.59

Task: # lookup: pIC50 of `Nc1ncc2cc(NC(=O)C(Cl)(Cl)Cl)ccc2n1`
Output: 4.30

---

Tested on: Mycolicibacterium smegmatis
Assay: Antibiofilm activity against Mycobacterium smegmatis str. MC2 155 ATCC 700084 after 48 hrs by crystal violet staining based […] assay
Assay type: functional, organism-based
Details: MC2 155 ATCC 700084, 48 h
measurementKind: pIC50
Value format note: pIC50 is -log10 of concentration (mol/L); just state the number.

Task: # lookup: pIC50 of `CCCCCCc1ccc(C(=O)Nc2ccc3nc(N)ncc3c2)cc1`
Output: 4.19

Task: # lookup: pIC50 of `Nc1ncc2cc(NC(=O)c3cc(Cl)cc(Cl)c3)ccc2n1`
Output: 4.38

Task: # lookup: pIC50 of `CCc1ccc(C(=O)Nc2ccc3nc(N)ncc3c2)cc1`
Output: 4.74

Task: # lookup: pIC50 of `CC(=O)Nc1ccc2nc(N)ncc2c1`
Output: 4.27

Task: # lookup: pIC50 of `Nc1ncc2cc(NC(=O)c3ccccc3)ccc2n1`
Output: 4.47

Task: # lookup: pIC50 of `CCCCCCC(=O)Nc1ccc2nc(N)ncc2c1`
Output: 4.31

Task: # lookup: pIC50 of `CCCCCc1ccc(C(=O)Nc2ccc3nc(N)ncc3c2)cc1`
Output: 4.41

Task: # lookup: pIC50 of `CCCCCC(=O)Nc1ccc2nc(N)ncc2c1`
Output: 4.64

Task: # lookup: pIC50 of `CCCCS(=O)(=O)Nc1ccc2nc(N)ncc2c1`
Output: 4.22

Task: # lookup: pIC50 of `CCS(=O)(=O)Nc1ccc2nc(N)ncc2c1`
Output: 4.47

Task: # lookup: pIC50 of `CCCC(=O)Nc1ccc2nc(N)ncc2c1`
Output: 4.43
